molecular target: Nonstructural protein 5A (Hepatitis C virus) (UniProt Q5L478); experiment: Inhibition of HCV GT3a NS5A assessed as suppression of replicon RNA level by real-time PCR analysis; conditions: Hepatitis C virus subtype 3a
Below, each entry is listed with its recorded EC90.
MEASURED_METRIC: EC90 (nM)

{"COMPOUND": "COC(=O)N[C@H](C(=O)N1CCC[C@H]1c1ncc(-c2cc(F)c3c(c2)O[C@@H](c2ccccc2)n2c-3cc3cc(-c4cnc([C@@H]5CCCN5C(=O)[C@@H](NC(=O)OC)C(C)C)[nH]4)ccc32)[nH]1)C(C)C", "ENDPOINT_VALUE": 0.4}
{"COMPOUND": "COC(=O)N[C@H](C(=O)N1CCC[C@H]1c1ncc(-c2ccc3c(c2)OCn2c-3c(C3CC3)c3cc(-c4cnc([C@@H]5CCCN5C(=O)[C@@H](NC(=O)OC)C(C)C)[nH]4)ccc32)[nH]1)C(C)C", "ENDPOINT_VALUE": 10}
{"COMPOUND": "COC(=O)N[C@H](C(=O)N1CCC[C@H]1c1ncc(-c2ccc3c(c2)OC(c2cccc(OC(C)C)c2)n2c-3cc3cc(-c4cnc([C@@H]5CCCN5C(=O)[C@@H](NC(=O)OC)C(C)C)[nH]4)ccc32)[nH]1)C(C)C (stereo partly drawn)", "ENDPOINT_VALUE": 0.08}

----------
Biological target: Nonstructural protein 5A (Hepatitis C virus)
Sequence (whole entry): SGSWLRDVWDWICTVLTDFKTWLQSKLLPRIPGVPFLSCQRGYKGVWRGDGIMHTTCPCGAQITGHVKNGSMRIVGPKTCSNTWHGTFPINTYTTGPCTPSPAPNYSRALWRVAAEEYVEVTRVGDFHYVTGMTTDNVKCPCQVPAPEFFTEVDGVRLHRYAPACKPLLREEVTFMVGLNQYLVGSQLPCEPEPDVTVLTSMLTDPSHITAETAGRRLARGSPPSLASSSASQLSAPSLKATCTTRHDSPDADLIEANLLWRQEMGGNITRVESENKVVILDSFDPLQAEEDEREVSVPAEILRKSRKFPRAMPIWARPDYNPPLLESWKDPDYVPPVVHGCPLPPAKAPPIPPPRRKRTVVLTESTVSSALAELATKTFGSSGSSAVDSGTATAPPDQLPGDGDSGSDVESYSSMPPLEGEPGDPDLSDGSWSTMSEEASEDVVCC
Test: Inhibition of HCV GT2b NS5A assessed as suppression of replicon RNA level by real-time PCR analysis
Conditions: Hepatitis C virus subtype 2b
Below, each entry is listed with its recorded log10(EC90).
MEASURED_METRIC: log10(EC90) (log10 of the value in nM)

{"COMPOUND": "COC(=O)N[C@H](C(=O)N1C[C@H](F)C[C@H]1c1ncc(-c2cc(F)c3c(c2)OC(c2cccc(O[C@@H]4CCOC4)c2)n2c-3cc3cc(-c4cnc([C@@H]5C[C@@H](F)CN5C(=O)[C@@H](NC(=O)OC)C(C)C)[nH]4)ccc32)[nH]1)C(C)C (mixture of isomers)", "TARGET": "Nonstructural protein 5A (Hepatitis C virus)", "MEASURED_METRIC": "log10(EC90)", "ENDPOINT_VALUE": 0.30}
{"COMPOUND": "COC(=O)N[C@H](C(=O)N1CCC[C@H]1c1ncc(-c2cc3c(c(C4CC4)c2)-c2cc4cc(-c5cnc([C@@H]6CCCN6C(=O)[C@@H](NC(=O)OC)C(C)C)[nH]5)ccc4n2CO3)[nH]1)C(C)C", "TARGET": "Nonstructural protein 5A (Hepatitis C virus)", "MEASURED_METRIC": "log10(EC90)", "ENDPOINT_VALUE": 2.66}
{"COMPOUND": "COC(=O)N[C@H](C(=O)N1CCC[C@H]1c1ncc(-c2ccc3c(c2)O[C@@H](c2ccccc2)n2c-3c(F)c3cc(-c4cnc([C@@H]5CCCN5C(=O)[C@@H](NC(=O)OC)C(C)C)[nH]4)ccc32)[nH]1)C(C)C", "TARGET": "Nonstructural protein 5A (Hepatitis C virus)", "MEASURED_METRIC": "log10(EC90)", "ENDPOINT_VALUE": 1.18}
{"COMPOUND": "COC(=O)N[C@H](C(=O)N1CCC[C@H]1c1ncc(-c2ccc3c(c2)cc2n3C(c3cccc(OC(C)C)c3)Oc3cc(-c4cnc([C@@H]5C[C@@H](F)CN5C(=O)[C@@H](NC(=O)OC)C(C)C)[nH]4)cc(F)c3-2)[nH]1)C(C)C (some centres undefined)", "TARGET": "Nonstructural protein 5A (Hepatitis C virus)", "MEASURED_METRIC": "log10(EC90)", "ENDPOINT_VALUE": 1.45}
{"COMPOUND": "COC(=O)N[C@H](C(=O)N1CCC[C@H]1c1ncc(-c2cc(F)c3c(c2)OC(c2cccc(OC(C)C)c2)n2c-3cc3cc(-c4cnc([C@@H]5CCCN5C(=O)[C@@H](NC(=O)OC)C(C)C)[nH]4)ccc32)[nH]1)C(C)C (some centres undefined)", "TARGET": "Nonstructural protein 5A (Hepatitis C virus)", "MEASURED_METRIC": "log10(EC90)", "ENDPOINT_VALUE": 1.26}
{"COMPOUND": "COC(=O)N[C@H](C(=O)N1C[C@H](F)C[C@H]1c1ncc(-c2cc(F)c3c(c2)OC(c2cccc(OC)c2)n2c-3cc3cc(-c4cnc([C@@H]5C[C@@H](F)CN5C(=O)[C@@H](NC(=O)OC)C(C)C)[nH]4)ccc32)[nH]1)C(C)C (some centres undefined)", "TARGET": "Nonstructural protein 5A (Hepatitis C virus)", "MEASURED_METRIC": "log10(EC90)", "ENDPOINT_VALUE": 1.59}
{"COMPOUND": "COC(=O)N[C@H](C(=O)N1CCC[C@H]1c1ncc(-c2cc3c(c(-c4ccccc4)c2)-c2cc4cc(-c5cnc([C@@H]6CCCN6C(=O)[C@@H](NC(=O)OC)C(C)C)[nH]5)ccc4n2CO3)[nH]1)C(C)C", "TARGET": "Nonstructural protein 5A (Hepatitis C virus)", "MEASURED_METRIC": "log10(EC90)", "ENDPOINT_VALUE": 2.03}
{"COMPOUND": "COC(=O)N[C@H](C(=O)N1CCC[C@H]1c1ncc(-c2cc(F)c3c(c2)OC(c2cc(Cl)cc(OC)c2)n2c-3cc3cc(-c4cnc([C@@H]5CCCN5C(=O)[C@@H](NC(=O)OC)C(C)C)[nH]4)ccc32)[nH]1)C(C)C (some centres undefined)", "TARGET": "Nonstructural protein 5A (Hepatitis C virus)", "MEASURED_METRIC": "log10(EC90)", "ENDPOINT_VALUE": -0.15}

----------
tested on: Nonstructural protein 5A (Hepatitis C virus), Q5L478 [Y93H]; test: Inhibition of HCV GT1a NS5A Y93H mutant assessed as suppression of replicon RNA level by real-time PCR analysis; settings: Hepatitis C virus subtype 1a
Sequence (Q5L478 entry or part of it Y93H): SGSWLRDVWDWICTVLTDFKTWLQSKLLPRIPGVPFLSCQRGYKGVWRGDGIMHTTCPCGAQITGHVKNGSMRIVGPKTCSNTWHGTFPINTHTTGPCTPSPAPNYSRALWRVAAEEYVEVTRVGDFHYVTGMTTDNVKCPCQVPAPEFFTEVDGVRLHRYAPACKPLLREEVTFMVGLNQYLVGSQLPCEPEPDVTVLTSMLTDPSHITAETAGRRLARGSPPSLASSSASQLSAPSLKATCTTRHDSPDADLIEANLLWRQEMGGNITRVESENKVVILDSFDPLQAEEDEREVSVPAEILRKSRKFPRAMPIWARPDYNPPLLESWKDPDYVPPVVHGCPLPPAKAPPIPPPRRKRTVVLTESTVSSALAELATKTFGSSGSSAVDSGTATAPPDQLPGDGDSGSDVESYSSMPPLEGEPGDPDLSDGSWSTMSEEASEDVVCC
Below, each entry is listed with its recorded EC90.

{"COMPOUND": "COC(=O)N[C@H](C(=O)N1C[C@H](F)C[C@H]1c1ncc(-c2ccc3c(c2)OC(c2ccccc2)n2c-3c(F)c3cc(-c4cnc([C@@H]5C[C@@H](F)CN5C(=O)[C@@H](NC(=O)OC)C(C)C)[nH]4)ccc32)[nH]1)C(C)C (mixture of isomers)", "EC90 (nM)": 2}
{"COMPOUND": "COC(=O)N[C@H](C(=O)N1CCC[C@H]1c1ncc(-c2cc(F)c3c(c2)O[C@@H](c2ccccc2)n2c-3cc3cc(-c4cnc([C@@H]5CCCN5C(=O)[C@@H](NC(=O)OC)C(C)C)[nH]4)ccc32)[nH]1)C(C)C", "EC90 (nM)": 34}
{"COMPOUND": "COC(=O)N[C@H](C(=O)N1CCC[C@H]1c1ncc(-c2ccc3c(c2)O[C@@H](c2ccccc2)n2c-3c(F)c3cc(-c4cnc([C@@H]5CCCN5C(=O)[C@@H](NC(=O)OC)C(C)C)[nH]4)ccc32)[nH]1)C(C)C", "EC90 (nM)": 25}
{"COMPOUND": "COC(=O)N[C@H](C(=O)N1CCC[C@H]1c1ncc(-c2cc(F)c3c(c2)OC(c2cc(OC)cc(OC)c2)n2c-3cc3cc(-c4cnc([C@@H]5CCCN5C(=O)[C@@H](NC(=O)OC)C(C)C)[nH]4)ccc32)[nH]1)C(C)C (some centres undefined)", "EC90 (nM)": 3}

----------
system: Nonstructural protein 5A (Hepatitis C virus), Q5L478 [UNDEFINED MUTATION]; experiment: Inhibition of HCV GT1a NS5A L31V mutant assessed as suppression of replicon RNA level by real-time PCR analysis; details: Hepatitis C virus subtype 1a
MEASURED_METRIC: EC90

{"COMPOUND": "COC(=O)N[C@H](C(=O)N1CCC[C@H]1c1ncc(-c2ccc3c(c2)cc2n3C(c3cccc(OC(C)C)c3)Oc3cc(-c4cnc([C@@H]5C[C@@H](F)CN5C(=O)[C@@H](NC(=O)OC)C(C)C)[nH]4)cc(F)c3-2)[nH]1)C(C)C (some centres undefined)", "MEASURED_METRIC": "EC90", "ENDPOINT_VALUE": "0.6 nM"}
{"COMPOUND": "COC(=O)N[C@H](C(=O)N1C[C@H](F)C[C@H]1c1ncc(-c2cc(F)c3c(c2)OC(c2cccc(OC(F)(F)F)c2)n2c-3cc3cc(-c4cnc([C@@H]5C[C@@H](F)CN5C(=O)[C@@H](NC(=O)OC)C(C)C)[nH]4)ccc32)[nH]1)C(C)C (some centres undefined)", "MEASURED_METRIC": "EC90", "ENDPOINT_VALUE": "7 nM"}
{"COMPOUND": "COC(=O)N[C@H](C(=O)N1CCC[C@H]1c1ncc(-c2ccc3c(c2)OCn2c-3cc3cc(-c4cnc([C@@H]5CCCN5C(=O)[C@@H](NC(=O)OC)C(C)C)[nH]4)cc(F)c32)[nH]1)C(C)C", "MEASURED_METRIC": "EC90", "ENDPOINT_VALUE": "3 nM"}
{"COMPOUND": "COC(=O)N[C@H](C(=O)N1CCC[C@H]1c1ncc(-c2ccc3c(c2)c(F)c2n3C(c3ccccc3)Oc3cc(-c4cnc([C@@H]5C[C@@H](F)CN5C(=O)[C@@H](NC(=O)OC)C(C)C)[nH]4)ccc3-2)[nH]1)C(C)C (some centres undefined)", "MEASURED_METRIC": "EC90", "ENDPOINT_VALUE": "1 nM"}
